Biological target: T1, USP38, Q8NB14
T1 chain: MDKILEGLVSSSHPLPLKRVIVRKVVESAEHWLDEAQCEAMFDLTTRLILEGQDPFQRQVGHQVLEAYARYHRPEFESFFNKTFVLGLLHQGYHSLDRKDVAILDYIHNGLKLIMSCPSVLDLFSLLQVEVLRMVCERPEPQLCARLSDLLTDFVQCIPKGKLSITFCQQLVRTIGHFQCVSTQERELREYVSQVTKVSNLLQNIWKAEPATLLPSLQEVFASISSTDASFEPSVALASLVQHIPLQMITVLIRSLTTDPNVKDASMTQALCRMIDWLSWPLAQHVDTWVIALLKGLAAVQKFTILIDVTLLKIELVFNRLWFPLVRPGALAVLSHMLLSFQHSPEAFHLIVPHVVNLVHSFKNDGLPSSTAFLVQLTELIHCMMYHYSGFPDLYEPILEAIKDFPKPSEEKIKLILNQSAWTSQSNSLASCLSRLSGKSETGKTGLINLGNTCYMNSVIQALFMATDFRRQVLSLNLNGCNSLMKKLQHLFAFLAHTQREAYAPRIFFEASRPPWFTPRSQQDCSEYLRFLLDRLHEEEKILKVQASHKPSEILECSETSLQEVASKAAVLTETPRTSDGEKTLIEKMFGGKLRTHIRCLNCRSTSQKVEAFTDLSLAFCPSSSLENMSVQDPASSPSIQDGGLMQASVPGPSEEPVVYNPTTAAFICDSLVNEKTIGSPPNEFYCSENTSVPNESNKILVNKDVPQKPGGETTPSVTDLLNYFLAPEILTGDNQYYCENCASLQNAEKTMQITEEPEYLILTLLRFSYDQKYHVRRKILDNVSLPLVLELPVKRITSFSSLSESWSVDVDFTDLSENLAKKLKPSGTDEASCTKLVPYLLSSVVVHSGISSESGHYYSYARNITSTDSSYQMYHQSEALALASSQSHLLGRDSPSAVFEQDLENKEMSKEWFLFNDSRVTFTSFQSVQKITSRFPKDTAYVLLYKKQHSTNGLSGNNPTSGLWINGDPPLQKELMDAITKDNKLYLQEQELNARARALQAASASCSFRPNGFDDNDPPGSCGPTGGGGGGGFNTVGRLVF
Assay: median log2 fold change of GCK-ALFA target abundance (FLAG IP / Myc IP barcode read proportion) (log2 ratio); each designed protein is fused to an ALFA-tag nanobody in HEK293 cells to bring the named protein to FLAG-tagged glucokinase (GCK); Myc marks an untargeted standard; higher = target protein stabilised (more abundant)
Conditions: target protein: 3xFLAG-MCP-GCK-ALFA reporter; HEK293 landing pad (RPLP)
Mark Y for reported median log2 fold change of -0.2 or greater; mark N for anything smaller.

Completed entries (count: 3):
binder: usp_38_diff_out_14_2_88 (protein) AEEELKKATEETLKKLEEGIKLAKELTKKVKEDPSQAEKAREELFKKHDEIGDAVGRLAKLIEEHKEIPALNKEAVEEVNKKLTEYTEETLKALELLAEA
discrete.label: N
//
binder: usp_38_diff_out_17_26_234 (protein) SAEEERRRARELLEELRRRTEEALARIRELIAAGRFAEAQALLDATVTEVTATATEIFELAADDDELLDEVNRAVGEIFDRLAAAGRELREARRAAAAAA
discrete.label: Y
//
binder: usp_38_diff_out_14_2_104 (protein) AKATIEAATAAALKAIDDGKKRLEELTKKVKEDPSKAEEAREEILAVWDEVGDAVGALAATLRANPAERATNKAATAEVNKALTEFTKKALEALEVAEEA
discrete.label: Y

Ask: Test whether the binder usp_38_diff_out_16_109_168 (protein) SADEEADRLLAEAAIANFRALAADAEAELKRLEARGASPAVLKAYADLAAKAKEAAATIEAALAKGENLRETTDAQWDAVGAAAARASELRRAEARERSA records median log2 fold change of -0.2 or higher.
Reply: Y

Ask: median log2 fold change >= -0.2 for usp_38_diff_out_16_109_169 (protein) SADEEADRLLAEAAIANFRALAEEARARLARLKARGASPAVLAAHQALADTAEAAAAEIEAALAAGENLRETTDRQWDAVGAAAAAASAALRAEARARSA ?
Reply: Y

Ask: Form field: median log2 fold change at least -0.2? Entry: usp_38_diff_out_18_14_296 (protein) SSELSEAERSVLELLKEEVKKDTERTIKLLEKVKDDPERVKRIVERAERNLAGVRAFAEEVKERAEKEGDEETVKAAEELLAEIDAARERIAAAREKVLA
Reply: N

Ask: Is median log2 fold change for usp_38_diff_out_18_31_441 (protein) SLRERGREVAERAREAIRRLRELAERLLEAIKEGKREEAEELAKEMDEELVELGRAYQELRDLAREDPSLRPLLKEVEEEANEAIDLYNKAMEELFLFKS at or above -0.2?
Reply: N
